Origin of measurements: the antibiotic and cytotoxicity screens of Wong et al. (2023)

tested on: HepG2; assay: cytotoxicity call (relative viability < 0.9); conditions: 10 µM
The whole screen tested about 39,000 compounds, of which about 3,300 (8.5%) were called active. This excerpt belongs to a sample that is enriched for actives.
Return exactly one item of label 1 for active, label 0 for inactive

Please review the following examples before continuing.
Assay result, entry C[C@H](CO)N1C[C@H](C)[C@H](CN(C)Cc2ccc(Cl)c(Cl)c2)Oc2ccc(NC(=O)Cc3cn(C)c4ccccc34)cc2CC1=O — outcome? label 1

Assay result, entry COCC(=O)N1C[C@@H](C)[C@H](OC)CN(C)C(=O)c2ccc(NC(=O)c3ccc(OC)cc3)cc2OC[C@@H]1C — outcome? label 0

Assay result, entry COCC(=O)N(C)C[C@H]1Oc2cc(C#C[C@@H](C)O)ccc2S(=O)(=O)N([C@H](C)CO)C[C@@H]1C — outcome? label 0

Continuing:
Assay result, entry C[C@@H]1CN([C@@H](C)CO)C(=O)Cc2cc(NC(=O)Cc3cn(C)c4ccccc34)ccc2O[C@H]1CN(C)Cc1ccc(Cl)c(Cl)c1 — outcome? label 0

###

tested on: HepG2; assay: cytotoxicity call (relative viability < 0.9); conditions: 10 µM
Hit rate of the full screen: of about 39,000 compounds, about 3,300 (8.5%) were called active. The full list was thinned out, with actives kept by preference.
Return exactly one item of YES for active, NO for inactive

Assay result, entry COCC#Cc1cnc2c(c1)C(=O)N([C@@H](C)CO)C[C@H](C)[C@H](CN(C)C(=O)c1cnccn1)O2 — outcome? NO

Please look at the following compound next.
Assay result, entry C[C@@H]1CN([C@H](C)CO)C(=O)c2cc(C#Cc3cccc(F)c3)cnc2O[C@@H]1CN(C)C(=O)C1CCOCC1 — outcome? NO

###

tested on: HepG2; test: cytotoxicity call (relative viability < 0.9); settings: 10 µM
Screen size: about 39,000 compounds; about 3,300 (8.5%) were called active. What follows is part of a selection rich in actives, with near analogues and random picks from the rest.
Return exactly one item of y for active, n for inactive

Please review the following examples before continuing.
Assay result, entry C[C@@H]1CN([C@@H](C)CO)C(=O)c2cccc(NC(=O)Nc3ccc(C(F)(F)F)cc3)c2O[C@H]1CN(C)C(=O)Nc1cccc2ccccc12 — outcome? y

Assay result, entry C[C@@H]1CN([C@@H](C)CO)C(=O)c2cc(NC(=O)CCC(F)(F)F)ccc2O[C@@H](C)CCCCO[C@H]1CN(C)C(=O)Nc1cccc2ccccc12 — outcome? n

Assay result, entry C[C@@H]1CN([C@H](C)CO)C(=O)c2cccc(NC(=O)Nc3ccc(C(F)(F)F)cc3)c2O[C@@H]1CN(C)C(=O)Nc1cccc2ccccc12 — outcome? n

Assay result, entry Cc1noc(C)c1NC(=O)N(C)C[C@@H]1Oc2ccc(NC(=O)CCN3CCOCC3)cc2C(=O)N([C@@H](C)CO)C[C@H]1C — outcome? n

Assay result, entry Cc1noc(C)c1NC(=O)Nc1cccc2c1O[C@H](CN(C)S(=O)(=O)c1cn(C)cn1)[C@@H](C)CN([C@H](C)CO)C2=O — outcome? n

Please look at the following molecule next.
Assay result, entry C[C@H](CO)N1C[C@H](C)[C@H](CN(C)Cc2ccc(C(F)(F)F)cc2)OCCCC[C@H](C)Oc2ccc(NC(=O)Nc3ccc(F)cc3)cc2C1=O — outcome? y

###

test system: HepG2; assay: cytotoxicity call (relative viability < 0.9); details: 10 µM
About 3,300 (8.5%) of roughly 39,000 compounds were called active. This is one part of a sample in which actives are shown more often than they occur.
Return exactly one item of YES (active), NO (inactive)

Please review the following examples before continuing.
Assay result, entry C[C@@H]1CCCCO[C@@H](CN(C)Cc2ccc(Cl)c(Cl)c2)[C@H](C)CN([C@H](C)CO)C(=O)c2cc(N(C)C)ccc2O1 — outcome? YES

Assay result, entry C[C@H](CO)N1C[C@H](C)[C@@H](CN(C)Cc2ccc(Cl)c(Cl)c2)OCCCC[C@H](C)Oc2ccc(N(C)C)cc2C1=O — outcome? NO

Assay result, entry C[C@@H]1CN([C@@H](C)CO)C(=O)Cc2cc(NS(=O)(=O)c3ccccc3)ccc2O[C@H]1CN(C)Cc1ccc(-c2ccccc2)cc1 — outcome? NO

Assay result, entry C[C@@H]1CN([C@H](C)CO)C(=O)Cc2cc(NS(=O)(=O)c3ccccc3)ccc2O[C@H]1CN(C)Cc1ccc(-c2ccccc2)cc1 — outcome? NO

Assay result, entry C[C@H]1CN([C@@H](C)CO)C(=O)Cc2cc(NS(=O)(=O)c3ccccc3)ccc2O[C@H]1CN(C)Cc1ccc(-c2ccccc2)cc1 — outcome? YES

Assay result, entry C[C@@H]1CN([C@@H](C)CO)C(=O)c2cc(NC(=O)Nc3ccc(C(F)(F)F)cc3)ccc2O[C@@H]1CN(C)S(C)(=O)=O — outcome? NO

Please look at the following compound next.
Assay result, entry COc1ccc(S(=O)(=O)Nc2ccc3c(c2)CC(=O)N([C@@H](C)CO)C[C@@H](C)[C@@H](CN(C)Cc2ccc(C(=O)O)cc2)O3)cc1 — outcome? NO

###

test system: HepG2; test: cytotoxicity call (relative viability < 0.9); details: 10 µM
In all, about 39,000 compounds went through this assay and about 3,300 (8.5%) were called active. What follows is part of a selection rich in actives, with near analogues and random picks from the rest.
Return exactly one item of Y for active, N for inactive

Please review the following examples before continuing.
Assay result, entry CC1CCC2C(C)C(OC(=O)CCC(=O)O)OC3OC4(C)CCC1C32OO4 (configuration not stated) — outcome? Y

Assay result, entry O=C(C[C@H]1C[C@H]2c3cc(NS(=O)(=O)c4ccc(F)cc4)ccc3O[C@H]2[C@@H](CO)O1)NCc1ccccn1 — outcome? N

Assay result, entry CC1(C)[C@H]2C[C@@H](O[C@H]3O[C@@H](CO)[C@@H](O)[C@@H](O)[C@@H]3O)[C@@]1(C)C[C@@H]2O — outcome? N

Continuing:
Assay result, entry C[C@@H]1CN([C@@H](C)CO)S(=O)(=O)c2ccc(C#CCN(C)C)cc2O[C@@H]1CN(C)Cc1ccc(F)cc1 — outcome? N

Assay result, entry C[C@H](CO)N1C[C@H](C)[C@H](CN(C)C(=O)Nc2cccc3ccccc23)Oc2ncc(-c3ccc(F)cc3)cc2C1=O — outcome? N

Assay result, entry CC(C)NC(=O)Nc1ccc2c(c1)CC(=O)N([C@H](C)CO)C[C@@H](C)[C@H](CN(C)S(=O)(=O)c1ccccc1)O2 — outcome? N

Assay result, entry CC(=O)C1CCC2C3CC=C4CC(OC(=O)CCC(=O)O)CCC4(C)C3CCC12C (configuration not stated) — outcome? N

Assay result, entry Nc1nc(=O)c2c([nH]1)NCC(CNc1ccc(C(=O)NC(CCC(=O)O)C(=O)O)cc1)=N2 (configuration not stated) — outcome? N

Assay result, entry Nc1nc(=O)c2nc(CNc3ccc(C(=O)N[C@@H](CCC(=O)O)C(=O)O)cc3)cnc2[nH]1 — outcome? N

Assay result, entry C[C@@H]1CN([C@@H](C)CO)C(=O)c2cc(C#CC3(O)CCCC3)cnc2O[C@@H]1CN(C)S(C)(=O)=O — outcome? N

Assay result, entry CO[C@H]1CN(C)C(=O)c2cc(NC(=O)Nc3ccc(Cl)cc3)ccc2OC[C@@H](C)N(C(=O)Nc2c(C)noc2C)C[C@@H]1C — outcome? N

Assay result, entry CCCN(CCC)C(=O)C(CCC(=O)O)NC(=O)c1ccccc1 (configuration not stated) — outcome? N

Assay result, entry COC(=O)[C@@]12O[C@@H]1[C@H](O[C@@H]1O[C@H](CO)[C@@H](O)[C@H](O)[C@H]1O)C[C@H]1[C@]3(C)C[C@@H](c4ccoc4)OC(=O)[C@H]3CC[C@]12C — outcome? Y

Assay result, entry CC(=O)N[C@@H](CCC(=O)O)C(=O)O — outcome? N

###

test system: HepG2; experiment: cytotoxicity call (relative viability < 0.9); conditions: 10 µM
Among all 39,000 compounds or so, about 3,300 (8.5%) were called active. The list comes from a sample in which actives are over-represented; it also holds close analogues and randomly drawn compounds.
Return exactly one item of yes (1) for active, no (0) for inactive

Please review the following examples before continuing.
Assay result, entry O=C(Oc1cccc2cccnc12)c1ccccc1 — outcome? yes (1)

Assay result, entry FC(F)Oc1cccc2cccnc12 — outcome? no (0)

Assay result, entry C[C@@H]1CN([C@H](C)CO)S(=O)(=O)c2ccc(C#Cc3cccc(F)c3)cc2O[C@@H]1CN(C)CC1CC1 — outcome? no (0)

Assay result, entry C[C@@H]1CCCCO[C@H](CN(C)S(=O)(=O)c2ccccc2)[C@H](C)CN([C@@H](C)CO)C(=O)c2cc(NC(=O)NC3CCCCC3)ccc2O1 — outcome? no (0)

Please look at the following molecule next.
Assay result, entry COc1ccc(S(=O)(=O)N(C)C[C@@H]2OCCCC[C@@H](C)Oc3ccc(NS(=O)(=O)c4cn(C)cn4)cc3C(=O)N([C@H](C)CO)C[C@H]2C)cc1 — outcome? no (0)
